This collection of values is drawn from paper PMC9440615.

Target: hPXR (Homo sapiens, UniProt O75469)
Sequence (O75469 1-434): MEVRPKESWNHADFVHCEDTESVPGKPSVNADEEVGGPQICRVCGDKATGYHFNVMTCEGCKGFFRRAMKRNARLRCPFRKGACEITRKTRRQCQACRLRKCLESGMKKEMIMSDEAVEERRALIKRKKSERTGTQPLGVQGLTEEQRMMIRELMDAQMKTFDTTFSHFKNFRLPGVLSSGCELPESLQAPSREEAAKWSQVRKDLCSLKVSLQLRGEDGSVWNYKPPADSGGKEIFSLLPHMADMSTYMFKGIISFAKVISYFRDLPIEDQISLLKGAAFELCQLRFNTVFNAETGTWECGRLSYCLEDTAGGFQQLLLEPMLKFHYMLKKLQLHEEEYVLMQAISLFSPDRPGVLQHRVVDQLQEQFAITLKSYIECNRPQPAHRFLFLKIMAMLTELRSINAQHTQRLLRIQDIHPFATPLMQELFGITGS
Conditions: qHTS primary screen, hPXR-Luc HepG2, 24 h; relative to positive control RIF
Counter-ions that a name gives are not always drawn.
Please enter y where PXR Primary Efficacy is greater than or equal to 200%, and n where it is lower.

Examples from the recorded data:
molecule=Cc1oc2c(NC(=O)c3c(Cl)cccc3Cl)cccc2c1C(C)(C)O classification=n
molecule=CC(C)C[C@H](NC(=O)[C@H](CCc1ccccc1)NC(=O)CN1CCOCC1)C(=O)N[C@@H](Cc1ccccc1)C(=O)N[C@@H](CC(C)C)C(=O)[C@@]1(C)CO1 classification=n
molecule="CCN1C(=O)c2ccccc2C1Nc1ccc(OCCN2CCCCC2)cc1 (stereo not drawn)" classification=n
molecule="O[C@@H](COc1cccc2ncccc12)CN1CCN([C@@H]2c3ccccc3[C@@H]3[C@H](c4ccccc42)C3(F)F)CC1 [Zosuquidar trihydrochloride]" classification=n

Shift focus to the following entry.
Q: Reported PXR Primary Efficacy at or above 200%? CCOc1cc(N)c(Cl)cc1C(=O)NCC1CN(Cc2ccc(F)cc2)CCO1 (stereo not drawn) [Mosapride citrate]
Ans: y

====

Biological target: UniProtKB O75469
Assay: cell-based
Conditions: PXR Primary EC50, qHTS primary screen, hPXR-Luc HepG2, 24 h
Structures can show the parent of a compound that is named as a salt.
pEC50 overview
Keep it numeric: pEC50 is minus log10 of the concentration in mol/L.

Examples with answers:
compound=CCCCOCN(C(=O)CCl)c1c(CC)cccc1CC readout_name=pEC50 numeric_value=5.40
compound=CC(C)C[C@H](NC(=O)[C@H](CCc1ccccc1)NC(=O)CN1CCOCC1)C(=O)N[C@@H](Cc1ccccc1)C(=O)N[C@@H](CC(C)C)C(=O)[C@@]1(C)CO1 readout_name=pEC50 numeric_value=7.40
compound="CCN1C(=O)c2ccccc2C1Nc1ccc(OCCN2CCCCC2)cc1 (stereo not drawn)" readout_name=pEC50 numeric_value=5.59
compound="CCOc1cc(N)c(Cl)cc1C(=O)NCC1CN(Cc2ccc(F)cc2)CCO1 (stereo not drawn) [Mosapride citrate]" readout_name=pEC50 numeric_value=5.06
compound="O[C@@H](COc1cccc2ncccc12)CN1CCN([C@@H]2c3ccccc3[C@@H]3[C@H](c4ccccc42)C3(F)F)CC1 [Zosuquidar trihydrochloride]" readout_name=pEC50 numeric_value=5.49

Let us examine a further case.
Q: Entry Cc1cccc(N(C)C(=S)Oc2ccc3c(c2)CCC3)c1 [Tolindate] : reported pEC50 = ?
Ans: 5.08
